- Assay Method Text: in vivo
- Recorded Conditions: male, Sprague Dawley, rat, iv, 1 mg/kg
Assay Readout: clearance (mL/min/kg)

>>> value_reported("[2H]C([2H])([2H])N1CCC(n2cc(-c3cnc(N)c(OCc4cccc(C#CC(C)(C)O)c4)c3)cn2)CC1 [Compound A2]")
71
>>> value_reported("CN1CCC(n2cc(-c3cnc(N)c(OCc4cccc(C#CC(C)(C)O)c4)c3)cn2)CC1 [Compound A1, reference compound]")
129

* * *

- Assay Method Text: in vivo
- Recorded Conditions: male, Sprague Dawley, rat, po, 10 mg/kg
Assay Readout: AUC(0-t) (ng·h/mL)

>>> value_reported("CN1CCC(n2cc(-c3cnc(N)c(OCc4cccc(C#CC(C)(C)O)c4)c3)cn2)CC1 [Compound A1, reference compound]")
79.8
>>> value_reported("[2H]C([2H])([2H])N1CCC(n2cc(-c3cnc(N)c(OCc4cccc(C#CC(C)(C)O)c4)c3)cn2)CC1 [Compound A2]")
572

Origin of values: patent US20250388572A1
